Target sequence: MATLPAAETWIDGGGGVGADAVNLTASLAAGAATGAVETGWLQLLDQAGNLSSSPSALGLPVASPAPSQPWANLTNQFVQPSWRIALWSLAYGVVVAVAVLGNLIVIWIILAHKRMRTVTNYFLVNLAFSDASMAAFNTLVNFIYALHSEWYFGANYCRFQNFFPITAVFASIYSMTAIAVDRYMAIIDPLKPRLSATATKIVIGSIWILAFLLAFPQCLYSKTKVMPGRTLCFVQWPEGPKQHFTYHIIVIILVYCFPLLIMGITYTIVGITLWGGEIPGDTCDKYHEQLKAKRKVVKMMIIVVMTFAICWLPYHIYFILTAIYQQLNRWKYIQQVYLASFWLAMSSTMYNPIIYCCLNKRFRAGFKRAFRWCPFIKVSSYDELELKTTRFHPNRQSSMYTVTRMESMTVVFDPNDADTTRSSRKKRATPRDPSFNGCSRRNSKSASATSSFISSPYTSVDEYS
pKi: −log10 of the molar value.
MEASUREMENT_LABEL: pKi

Consider the worked cases shown below.
COMPOUND: CC(C)N1CCN(Cc2c(-c3ccccc3)nc3ccccc3c2C(=O)NC2CCCCC2)CC1
pKi: 5.90

COMPOUND: C[C@H](NC(=O)c1c(CN2CCC(N3CCCCC3)CC2)c(-c2ccccc2)nc2ccccc12)C(C)(C)C
pKi: 6.71

COMPOUND: C[C@H](NC(=O)c1c(CN2CCNCC2)c(-c2ccccc2)nc2ccccc12)C1CCCCC1
pKi: 8.47

COMPOUND: CC(C)C(C)NC(=O)c1c(CN2CCN(C(C)C)CC2)c(-c2ccccc2)nc2ccccc12 (stereo not drawn)
pKi: 6.34

A. CC[C@H](NC(=O)c1c(CN2CCCCC2)c(-c2ccccc2)nc2ccccc12)c1ccccc1
B. C[C@H](NC(=O)c1c(CN2CCC(N3CCOCC3)CC2)c(-c2ccccc2)nc2ccccc12)C1CCCCC1
Query block: Between A and B , whose recorded pKi is greater? Answer by stating the label of the chosen item.
Result block: B

====

Molecular target: Substance-K receptor (Homo sapiens)
Sequence (P21452 whole entry): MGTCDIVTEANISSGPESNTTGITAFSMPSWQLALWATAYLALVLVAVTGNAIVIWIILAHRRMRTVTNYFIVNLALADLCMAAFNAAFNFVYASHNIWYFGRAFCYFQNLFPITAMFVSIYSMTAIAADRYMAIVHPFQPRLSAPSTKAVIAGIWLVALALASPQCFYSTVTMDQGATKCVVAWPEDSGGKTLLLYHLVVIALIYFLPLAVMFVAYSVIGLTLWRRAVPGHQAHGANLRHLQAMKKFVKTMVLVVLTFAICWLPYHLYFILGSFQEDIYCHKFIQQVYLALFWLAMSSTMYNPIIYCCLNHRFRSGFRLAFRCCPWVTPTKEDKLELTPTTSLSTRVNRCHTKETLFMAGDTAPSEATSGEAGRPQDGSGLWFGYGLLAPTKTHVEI
pKi: −log10 of the molar value.
MEASUREMENT_LABEL: pKi

Worked set:
SMILES_ENTRY: CC[C@H](NC(=O)c1c(CN2CCNCC2)c(-c2ccccc2)nc2ccccc12)c1ccccc1
TEST_SYSTEM: Substance-K receptor (Homo sapiens)
REPORTED_MEASUREMENT: 7.65

SMILES_ENTRY: CC[C@H](NC(=O)c1c(CN2CCCCC2)c(-c2ccccc2)nc2ccccc12)c1ccccc1
TEST_SYSTEM: Substance-K receptor (Homo sapiens)
REPORTED_MEASUREMENT: 6.56

SMILES_ENTRY: CC(C)N1CCN(Cc2c(-c3ccccc3)nc3ccccc3c2C(=O)NC2CCCCC2)CC1
TEST_SYSTEM: Substance-K receptor (Homo sapiens)
REPORTED_MEASUREMENT: 8.38

SMILES_ENTRY: CC[C@H](NC(=O)c1c(CN(C)C)c(-c2ccccc2)nc2ccccc12)c1ccccc1
TEST_SYSTEM: Substance-K receptor (Homo sapiens)
REPORTED_MEASUREMENT: 6.76

SMILES_ENTRY: C[C@H](NC(=O)c1c(CN2CCC(N3CCOCC3)CC2)c(-c2ccccc2)nc2ccccc12)C1CCCCC1
TEST_SYSTEM: Substance-K receptor (Homo sapiens)
REPORTED_MEASUREMENT: 9.10

P. C[C@H](NC(=O)c1c(CN2CCC(N3CCCCC3)CC2)c(-c2ccccc2)nc2ccccc12)C1CCCCC1
Q. CCC(CC)NC(=O)c1c(CN2CCN(C(C)C)CC2)c(-c2ccccc2)nc2ccccc12
Query block: Larger number for pKi: P , or Q ? Output the label that corresponds to your choice.
Result block: P
